Taken from PubChem BioAssay (NCI).

tested on: LOX IMVI melanoma; assay: NCI-60 one-dose screen, 48 h; settings: 10 µM unless noted
This is part of a sample that, as a whole, favours compounds with a hit. Of some 83,000 tested, about 20% had one in any assay. Active and inactive are the calls of the source. The calls were made as follows: active = growth percent below 10; inactive = the rest.
Return exactly one item of label 1 (active), label 0 (inactive)

For orientation, consider the following solved cases.
MOLECULE	DISCRETE LABEL
O=S(=O)(NCCCNc1cc(-c2cn(-c3ccccc3)nc2-c2cccc(O)c2)ccn1)c1ccc(Cl)cc1	label 1
CC(=O)n1cc([C@H]2CC[C@H](c3cn(C(C)=O)c4ccccc34)c3c2[nH]c2ccccc32)c2ccccc21	label 0
O=S(=O)(O)CCl	label 0
Cc1ccc2nc(SCn3nnc4ccccc4c3=O)[nH]c2c1	label 0
CC[C@]1(O)C[C@@H]2CN(Cc3c([nH]c4ccccc34)[C@@](C(=O)OC)(c3cc4c(cc3OC)N(C)[C@H]3[C@@](O)(C(=O)OC)[C@H](OC(C)=O)[C@]5(CC)[C@@H]6C[C@@H]6CN6CC[C@]43[C@@H]65)C2)C1	label 0
NC(=S)NN=C1CCCCC1	label 0

(Q) Record request — test call for COc1ccc(C2CC(c3cccs3)=NN2c2ccc(S(=O)(=O)NC(=O)Nc3ccc(C)cc3)cc2)cc1 (stereo not drawn)
(A) label 0

(Q) Record request — test call for CC(CCc1ccccc1)NC(=O)c1n[nH]c(=O)c2ccccc12 (stereo not drawn)
(A) label 0

(Q) Record request — test call for Nc1c(C(=O)Nc2cccc(C(F)(F)F)c2)sc2nc3c(cc12)CCCCCC3
(A) label 0

(Q) Record request — test call for Cc1cc(C(=O)O)c(N)c(C)n1
(A) label 0

----------
tested on: SNB-19 CNS; assay: NCI-60 one-dose screen, 48 h (100 = growth as untreated, 0 = no growth, -100 = all killed); details: 10 µM unless noted
The panel holds about 83,000 compounds, 20% with a hit somewhere; the sample as a whole holds those more often.
Doc: threshold 70% (exclusive). Items with growth beneath it return satisfied; others return not satisfied.

For orientation, consider the following solved cases.
COMPOUND	DISCRETE LABEL
COc1ccc(/C=C(\C#N)c2ccc([N+](=O)[O-])cc2)c2ccccc12	satisfied
O=S(=O)(NCCNc1cc(-c2cn(-c3ccccc3)nc2-c2ccccc2)ccn1)c1ccc(F)cc1	not satisfied
O=P([O-])(O)OP(=O)([O-])O.[NH-][C@H]1CCCC[C@@H]1[NH-].[OH-].[OH-].[Pt+4]	not satisfied
CC/C=C\C[C@H](O)C/C=C1/C(=O)C(Cl)=C[C@@H]1C/C=C\CCCC(=O)OC	satisfied
COc1cccc(-c2nc3sccn3c2-c2ccnc(NCCCNS(=O)(=O)c3ccccc3)n2)c1	not satisfied

(Q) Below 70% on growth? Entry COc1ccc(C(=O)c2cc(OC)c(OC)c(OC)c2)cc1/C=C/C(=O)c1ccc2c(c1)OCO2
(A) satisfied

(Q) Below 70% on growth? Entry COc1cc(C(=O)/C=C/c2cc(C(=O)c3cc(OC)c(OC)c(OC)c3)ccc2OC)ccc1N
(A) satisfied

(Q) Below 70% on growth? Entry N#Cc1ncc(-c2ccc(F)c(F)c2F)c(NC2CCCCCC2)n1
(A) not satisfied

(Q) Below 70% on growth? Entry CCCCCCC[C@@H](O)CC(=O)N[C@H](CCCCN)C(=O)N[C@H](Cc1c[nH]c2ccccc12)C(=O)NC(CCCCN)C(=O)N[C@H](CC(C)C)C(=O)N[C@H](Cc1ccccc1)C(=O)N[C@H](CCCCN)C(=O)N[C@H](CCCCN)C(=O)N[C@H](CC(C)C)C(=O)N1CCCC1C(=O)N[C@H](CCCCN)C(=O)N[C@H](Cc1ccccc1)C(=O)N[C@H](CC(C)C)C(=O)N[C@H](Cc1c[nH]cn1)C(=O)N[C@H](CC(C)C)C(=O)N[C@H](C)C(=O)N[C@H](CCCCN)C(=O)N[C@H](CCCCN)C(=O)N[C@H](Cc1ccccc1)C(=O)O (stereo partly specified)
(A) satisfied

(Q) Below 70% on growth? Entry O=C(CN1CCN(c2cc3c(cc2F)c(=O)c(C(=O)O)cn3C2CC2)CC1)Nc1ccc(C(=O)/C=C/c2ccc(Cl)cc2)cc1
(A) not satisfied

(Q) Below 70% on growth? Entry COC(=O)CCCCCN=Cc1c(O)c(O)c(C(C)C)c2cc(C)c(-c3c(C)cc4c(C(C)C)c(O)c(O)c(C=NCCCCCC(=O)OC)c4c3O)c(O)c12
(A) satisfied

(Q) Below 70% on growth? Entry CCOC(=O)[C@H](CSSc1ncnc2cc[nH]c12)NC(=O)[C@@H](C)c1ccc2cc(OC)ccc2c1
(A) not satisfied

(Q) Below 70% on growth? Entry CC(=O)C1CCC(C)=CC1=O (stereo unspecified)
(A) not satisfied
